These measurements were taken from PubChem BioAssay (NCI).

- System: NCI-H460 lung
Can you answer with just one of these options? yes = active, no = inactive

> print(dat)
                                   compound  assayed.target  group
1                        CCCCCCCCCCNC(=O)CI   NCI-H460 lung     no
2  O=C(O)c1cccc(COc2ccc([N+](=O)[O-])cc2Cl)c1   NCI-H460 lung     no
3  COc1cc2c(Nc3cc(Cl)c(OC)c(Cl)c3)c(C#N)cnc2cc1OCCCN1CCN(C)CC1   NCI-H460 lung     no
4  O=C1c2ccccc2-c2c1c1ccccc1c(=O)n2CCN1CCNCC1   NCI-H460 lung     no
5  COC(=O)c1cc2c(o1)-c1nccc3c1c(nc1ccccc13)C2=O   NCI-H460 lung     no
6  Nc1ccccc1O.O.O=C(O)C1[O][Sb][O]C1C(=O)O (centres undefined)   NCI-H460 lung     no

Task item: I'd appreciate the recorded outcome for `O=C1CCCN1c1ccccc1I(=O)=O` from this test.
Reply: no

----------
# TGI values compiled below
- System: SNB-75 CNS
- TEST_DESCRIPTION: NCI tumour cell line growth inhibition, 48 h

> print(dat)
                                   compound    result
1  Cc1cn([C@@H]2C[C@H](CO)[C@@H](O)C2)c(=O)[nH]c1=O  > 100 µM
2        N=C(N)c1ccc(-c2ccc(-c3cccs3)s2)cc1   3.17 µM

Task item: Under SNB-75 CNS, report TGI for `COc1cc2c(Nc3cc(Cl)c(OC)c(Cl)c3)c(C#N)cnc2cc1OCCCN1CCN(C)CC1`
Reply: 25.2 µM

Task item: Name the recorded TGI of `COc1c(C)n(CCO)ccc1=O` , assay system SNB-75 CNS.
Reply: > 100 µM

Task item: Provide SNB-75 CNS TGI reading for `COc1ccc(C(=O)c2cc(OC)c(OC)c(OC)c2)cc1OC` .
Reply: > 100 µM

Task item: Give SNB-75 CNS TGI for the following compound: CCN1CCCC(NCc2c3ccccc3c(CNC3CCCN(CC)C3)c3ccccc23)C1 (centres undefined)
Reply: 25 µM

Task item: Provide TGI, tested on SNB-75 CNS, for `COc1cc2nc(-c3cccs3)oc(=O)c2cc1OC` .
Reply: > 100 µM

Task item: Jot down TGI (SNB-75 CNS) of `Nc1c(-c2ccccc2-c2c(N)[n+]([O-])c3ccccc3[n+]2[O-])[n+]([O-])c2ccccc2[n+]1[O-]` .
Reply: > 100 µM

Task item: Report measured TGI on SNB-75 CNS; entry: `COc1ccc(/C=C2\C[C@H]3[C@@H]4CCC5=C/C(=N/O)CC[C@]5(C)[C@H]4CC[C@]3(C)\C2=N\O)cc1OC`
Reply: > 100 µM

----------
- Tested on: A498 renal
- TEST_DESCRIPTION: NCI tumour cell line growth inhibition, 48 h
ENDPOINT_LABEL: GI50

> print(dat)
                               smiles.input  endpoint.label   result
1  Cn1cc(-c2csc(-c3cn(CCCCN4CCCCC4)c4ccccc34)n2)c2cccnc21            GI50  1.61 µM
2                    CN(C)C(=S)SSC(=S)N(C)C            GI50  15.1 µM

Task item: Supply GI50 value. Item: `COc1cc2c(/C=N\N=C(N)N)c[nH]c2cc1C`
Reply: 27.3 µM

Task item: Give a short answer stating reported GI50 for `CCc1ccc2c(c1)C(=O)c1c-2n(CCCN=[N+]=[N-])c(=O)c2cc([N+](=O)[O-])ccc12` .
Reply: > 50 µM

Task item: Specify reported GI50 for the compound shown: `COc1cc2c(Nc3cc(Cl)c(OC)c(Cl)c3)c(C#N)cnc2cc1OCCCN1CCN(C)CC1`
Reply: 0.904 µM

Task item: Fill in GI50 for record `Nc1cc(Br)c(-c2nnc(CCC(=O)c3nc4ccccc4[nH]3)o2)c(Br)c1`
Reply: 0.662 µM

----------
- Test system: LXFL 529 NSCLC
- TEST_DESCRIPTION: NCI tumour cell line growth inhibition, 48 h
ENDPOINT_LABEL: TGI

Task item: Assign TGI to the following record: `Cc1ccccc1C1=[N+]([O-])c2ccc(Cl)cc2C1=O`
Reply: 24.3 µM

Task item: Return TGI (reported value) for this compound: `COC(=O)/C([Se]c1c(C)cc(C)cc1C)=C(/[Se]c1c(C)cc(C)cc1C)C(=O)OC`
Reply: > 100 µM

Task item: Give TGI for `CN(C(=O)c1ccc([N+](=O)[O-])cc1)c1ccccc1`
Reply: > 100 µM

Task item: Input CC1=NN(C(=O)CC(=O)Nc2ccccc2F)C(=O)C1N=Nc1ccccc1[N+](=O)[O-] (stereo not given) , output reported TGI.
Reply: > 100 µM

Task item: Please report the measured TGI for Cc1ccc(C)c(N2C/C(=N\NC(=O)CC#N)C(c3nc4ccccc4s3)C(=O)C2=O)c1 (stereo not given)
Reply: > 100 µM

----------
As shown below, each of these compounds has a reported GI50 value.
- System: MDA-MB-231 breast
- TEST_DESCRIPTION: NCI tumour cell line growth inhibition, 48 h

> print(dat)
                               smiles.input     assayed.target  endpoint.label    result
1                  O=C1CCCN1c1ccccc1I(=O)=O  MDA-MB-231 breast            GI50  > 100 µM
2  CCc1ccc2c(c1)C(=O)c1c-2n(CCCN=[N+]=[N-])c(=O)c2cc([N+](=O)[O-])ccc12  MDA-MB-231 breast            GI50   > 50 µM

Task item: System MDA-MB-231 breast. Read-out GI50. Item `Cc1cc(Nc2nc(-c3cn(-c4ccc(Cl)cc4)nn3)nc3ccccc23)n[nH]1` . Report value.
Reply: 17.7 µM

Task item: Tell me its GI50 on MDA-MB-231 breast: `O=C1Nc2ccccc2/C1=C1\CCc2cc(O)ccc21`
Reply: 7.22 µM

----------
Listed here: items and their measured TGI.
- System: OVCAR-5 ovarian
- TEST_DESCRIPTION: NCI tumour cell line growth inhibition, 48 h

Task item: Answer with the recorded TGI for the compound listed here: `Nc1nc(-c2ccc(Cl)c([N+](=O)[O-])c2)cs1`
Reply: > 100 µM

----------
Listed here are compounds together with their documented TGI.
- Test system: MDA-N
- TEST_DESCRIPTION: NCI tumour cell line growth inhibition, 48 h

Worked examples follow.
COMPOUND	ENDPOINT_LABEL	RESULT
CN(Cc1ccccc1)c1cc(=O)n(C)c(=O)[nH]1	TGI	> 100 µM
COC(C)(C)[C@@H](O)[C@H]1C[C@H](C)[C@@]2(CC[C@]3(C)[C@@H]2CC[C@@H]2[C@@]4(C)CC[C@@H](OC(C)=O)C(C)(C)[C@@H]4C[C@@H](OC4OC(COC(C)=O)C(O)C(O)C4O)[C@]23C)O1 (stereo not given in full)	TGI	17.9 µM
Cc1ccc(OCCn2cc(Nc3ccccc3)c(=O)n(CCOc3ccc(C)cc3)c2=O)cc1	TGI	> 100 µM
COc1ccc(/C=C2\C[C@H]3[C@@H]4CCC5=C/C(=N/O)CC[C@]5(C)[C@H]4CC[C@]3(C)\C2=N\O)cc1OC	TGI	> 100 µM
N#CC(N=Nc1ccc(Cl)cc1)c1nc2ccccc2o1 (stereo not given)	TGI	> 100 µM
CCC1=NC(C(F)(F)F)(C(F)(F)F)N=C(N2CCOCC2)O1	TGI	> 100 µM

Task item: Dear colleague, please send me the reported TGI for `COc1ccc(-c2c3c([nH]c(=S)c2C#N)CC(C)(C)CC3=O)cc1` when you can.
Reply: > 100 µM

Task item: In one line, give reported TGI of the entry Nc1nc(Cl)cc(NCC2(CO)CCC(CCc3ccccc3)C2)n1 (stereo not given) .
Reply: 28.1 µM

Task item: For the compound `CC(=O)c1cccn1/C=C(\OC(=O)OC(C)(C)C)c1ccc[nH]1` , give its reported TGI.
Reply: > 100 µM

Task item: Annotate the compound `C[C@@H]1S[C@H](c2ccccc2F)N2Cc3ccccc3N=C12` with its measured TGI.
Reply: 48.4 µM

----------
- System: SF-295 CNS
- TEST_DESCRIPTION: NCI tumour cell line growth inhibition, 48 h; in the data active = GI50 below about 0.43 µM; inactive = the rest
A correct response names exactly one class from 1 (active), -1 (inactive)

Solved cases below.
> print(dat)
                               smiles.input  assayed.target  group
1         COc1ccc(-c2nccn2-c2ccc(OC)cc2)cc1      SF-295 CNS     -1
2  COC(=O)c1cc2c(o1)-c1nccc3c1c(nc1ccccc13)C2=O      SF-295 CNS     -1

Proceed to the following item.
Task item: Call for entry `COc1cc2c(/C=N\N=C(N)N)c[nH]c2cc1C` :
Reply: -1
